# studySystem: von Hippel-Lindau disease tumor suppressor/Interleukin-1 receptor-associated kinase 1 (Homo sapiens, UniProt P51617+P40337)
# experimentSummary: Protac activity at VHL/IRAK1 in HEK293T cells assessed as induction of IRAK1 degradation at 10 uM measured after 24 hrs by Western blot analysis relative to control
# Type: cell-based
# Sequence (P40337 whole entry, looked up): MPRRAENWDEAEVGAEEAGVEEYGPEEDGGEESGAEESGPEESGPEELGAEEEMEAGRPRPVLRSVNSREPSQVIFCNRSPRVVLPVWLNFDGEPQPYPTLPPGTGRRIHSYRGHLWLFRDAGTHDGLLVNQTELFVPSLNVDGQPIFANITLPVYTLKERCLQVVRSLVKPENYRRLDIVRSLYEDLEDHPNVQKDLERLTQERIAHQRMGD
# Sequence (P51617 whole entry, looked up): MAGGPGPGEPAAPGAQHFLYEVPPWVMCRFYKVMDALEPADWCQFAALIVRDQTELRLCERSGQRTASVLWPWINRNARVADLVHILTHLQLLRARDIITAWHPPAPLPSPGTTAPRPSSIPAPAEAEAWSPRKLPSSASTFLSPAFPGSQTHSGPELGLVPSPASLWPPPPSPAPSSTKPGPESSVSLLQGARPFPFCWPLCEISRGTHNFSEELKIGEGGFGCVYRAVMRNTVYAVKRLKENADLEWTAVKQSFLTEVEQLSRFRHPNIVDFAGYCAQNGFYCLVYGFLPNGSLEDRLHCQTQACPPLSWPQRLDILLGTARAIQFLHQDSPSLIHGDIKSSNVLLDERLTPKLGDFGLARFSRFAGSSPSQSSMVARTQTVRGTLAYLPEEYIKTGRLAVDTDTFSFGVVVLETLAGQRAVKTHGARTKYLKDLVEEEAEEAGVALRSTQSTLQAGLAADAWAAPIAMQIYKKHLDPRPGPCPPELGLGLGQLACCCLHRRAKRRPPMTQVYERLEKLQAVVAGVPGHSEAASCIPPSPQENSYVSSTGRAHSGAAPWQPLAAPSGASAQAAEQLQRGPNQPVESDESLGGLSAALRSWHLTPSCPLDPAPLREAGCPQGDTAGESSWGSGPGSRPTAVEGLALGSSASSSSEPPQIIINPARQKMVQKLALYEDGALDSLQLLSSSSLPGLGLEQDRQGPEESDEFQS
Recorded Emax for the following compounds
Please respond with the number in % and leave the unit unwritten.

COc1cc(N2CCN(C(=O)OCC(=O)N[C@H](C(=O)N3C[C@H](O)C[C@H]3C(=O)N[C@@H](C)c3ccc(-c4scnc4C)cc3)C(C)(C)C)CC2)ccc1NC(=O)c1cccc(-c2ccn[nH]2)n1    90

(Q) Query (compound): COc1cc(N2CCC(OCC(=O)N[C@H](C(=O)N3C[C@H](O)C[C@H]3C(=O)NCc3ccc(-c4scnc4C)cc3F)C(C)(C)C)CC2)ccc1NC(=O)c1cccc(-c2ccn[nH]2)n1 ; field requested: Emax
(A) 96

(Q) Query (compound): COc1cc(N2CC[C@@H](OCC(=O)N[C@H](C(=O)N3C[C@H](O)C[C@H]3C(=O)N[C@@H](C)c3ccc(-c4scnc4C)cc3)C(C)(C)C)C[C@@H]2C)ccc1NC(=O)c1cccc(-c2ccn[nH]2)n1 ; field requested: Emax
(A) 94

(Q) Query (compound): COc1cc(N2CC[C@@H](OCC(=O)N[C@H](C(=O)N3C[C@H](O)C[C@H]3C(=O)N[C@@H](C)c3ccc(-c4scnc4C)cc3)C(C)(C)C)[C@H](C)C2)ccc1NC(=O)c1cccc(-c2ccn[nH]2)n1 ; field requested: Emax
(A) 96

(Q) Query (compound): COc1cc(N2CCC(OCC(=O)N[C@H](C(=O)N3C[C@H](O)C[C@H]3C(=O)NCc3ccc(-c4scnc4C)cc3)C(C)(C)C)CC2)ccc1NC(=O)c1cccc(-c2ccn[nH]2)n1 ; field requested: Emax
(A) 95

---

# studySystem: von Hippel-Lindau disease tumor suppressor/Interleukin-1 receptor-associated kinase 1 (Homo sapiens, UniProt P51617+P40337)
# experimentSummary: Protac activity at VHL/IRAK1 in HEK293T cells assessed as induction of IRAK1 degradation at 10 uM measured after 24 hrs by Western blot analysis relative to control
# Format: cell-based
propertyName: Emax (%)
Please respond with the number in % and leave the unit unwritten.

For orientation, consider the following solved cases.
COc1cc(N2CCN(C(=O)OCC(=O)N[C@H](C(=O)N3C[C@H](O)C[C@H]3C(=O)NCc3ccc(-c4scnc4C)cc3)C(C)(C)C)CC2)ccc1NC(=O)c1cccc(-c2ccn[nH]2)n1    97
COc1cc(N2CCC(OCC(=O)N[C@H](C(=O)N3C[C@H](O)C[C@H]3C(=O)N[C@@H](C)c3ccc(-c4scnc4C)cc3)C(C)(C)C)CC2)ccc1NC(=O)c1cccc(-c2ccn[nH]2)n1    96

Turning to the following molecule.
(Q) Query (molecule): COc1cc(N2CC[C@H](OCC(=O)N[C@H](C(=O)N3C[C@H](O)C[C@H]3C(=O)N[C@@H](C)c3ccc(-c4scnc4C)cc3)C(C)(C)C)[C@@H](C)C2)ccc1NC(=O)c1cccc(-c2ccn[nH]2)n1 ; field requested: Emax
(A) 95

---

# studySystem: von Hippel-Lindau disease tumor suppressor/Interleukin-1 receptor-associated kinase 1 (Homo sapiens, UniProt P51617+P40337)
# experimentSummary: Protac activity at VHL/IRAK1 in HEK293T cells assessed as induction of IRAK1 degradation measured after 24 hrs by Western blot analysis
# Assay type: cell-based
# Sequence (P51617 whole entry): as the sequence (P51617 whole entry, looked up) above
# Sequence (P40337 whole entry): as the sequence (P40337 whole entry, looked up) above
propertyName: DC50

For orientation, consider the following solved cases.
COc1cc(N2CCC(OCC(=O)N[C@H](C(=O)N3C[C@H](O)C[C@H]3C(=O)N[C@@H](C)c3ccc(-c4scnc4C)cc3)C(C)(C)C)CC2)ccc1NC(=O)c1cccc(-c2ccn[nH]2)n1    3 nM
COc1cc(N2CCC(OCC(=O)N[C@H](C(=O)N3C[C@H](O)C[C@H]3C(=O)NCc3ccc(-c4scnc4C)cc3)C(C)(C)C)CC2)ccc1NC(=O)c1cccc(-c2ccn[nH]2)n1    16 nM

Turning to the following compound.
(Q) Query (compound): COc1cc(N2CC[C@@H](OCC(=O)N[C@H](C(=O)N3C[C@H](O)C[C@H]3C(=O)N[C@@H](C)c3ccc(-c4scnc4C)cc3)C(C)(C)C)[C@H](C)C2)ccc1NC(=O)c1cccc(-c2ccn[nH]2)n1 ; field requested: DC50
(A) 21 nM

---

# studySystem: von Hippel-Lindau disease tumor suppressor/Interleukin-1 receptor-associated kinase 1 (Homo sapiens, UniProt P51617+P40337)
# experimentSummary: Protac activity at VHL/IRAK1 in HEK293T cells assessed as induction of IRAK1 degradation measured after 24 hrs by Western blot analysis
# Assay type: cell-based
propertyName: DC50 (nM)
Please respond with the number in nM and leave the unit unwritten.

For orientation, consider the following solved cases.
COc1cc(N2CCN(C(=O)OCC(=O)N[C@H](C(=O)N3C[C@H](O)C[C@H]3C(=O)NCc3ccc(-c4scnc4C)cc3)C(C)(C)C)CC2)ccc1NC(=O)c1cccc(-c2ccn[nH]2)n1    16
COc1cc(N2CCC(OCC(=O)N[C@H](C(=O)N3C[C@H](O)C[C@H]3C(=O)NCc3ccc(-c4scnc4C)cc3F)C(C)(C)C)CC2)ccc1NC(=O)c1cccc(-c2ccn[nH]2)n1    13
COc1cc(N2CC[C@@H](OCC(=O)N[C@H](C(=O)N3C[C@H](O)C[C@H]3C(=O)N[C@@H](C)c3ccc(-c4scnc4C)cc3)C(C)(C)C)C[C@@H]2C)ccc1NC(=O)c1cccc(-c2ccn[nH]2)n1    13

Turning to the following compound.
(Q) Query (compound): COc1cc(N2CCN(C(=O)OCC(=O)N[C@H](C(=O)N3C[C@H](O)C[C@H]3C(=O)N[C@@H](C)c3ccc(-c4scnc4C)cc3)C(C)(C)C)CC2)ccc1NC(=O)c1cccc(-c2ccn[nH]2)n1 ; field requested: DC50
(A) 9
